Target: bromelain-released HA (BHA) of influenza X-31 (influenza A strain X-31 (H3N2))
Assay: BLI
Lab note: anything with Kd below 6 nM is marked yes; values at 6 nM or higher are marked no.

Past entries and their recorded results:
[[record]]
binder = "1G11 HCAb (antibody, V domains shown) VH: EVQLVESGGGLVKPGGSLRLSCAASGFTFSDYYMSWIRQTPGKGLEWVSYISSSGSNIYYADSVKGRFTISRDNAKNSLYLQMNSLRAEDTAVYYCARGISMARDSWGQGTLVTVSS"
categorylabel = "yes"

[[record]]
binder = "1F4 HCAb (antibody, V domains shown) VH: EVQLVESGGGLVKPGGSLRLSCAASGFTFSDYYMSWIRQAPGKGLEWVSYISSSGSTIYYADSVKGRFTISRDNAKNSLYLQMNSLRAEDTAVYYCARGVKLTEDDWGQGTLVTVSS"
categorylabel = "no"

[[record]]
binder = "3A8 HCAb (antibody, V domains shown) VH: EVQLVESGGGLVKPGGSLRLSCAASGFTFSDYYMSWIRQAPGKGLEWVSYISSSGDIIYYADSVKGRFTISRDNAKNSLFLQMNSLRAEDTAVYYCTRGVSLVRDYWGQGTQVTVSS"
categorylabel = "yes"

[[record]]
binder = "1C12 HCAb (antibody, V domains shown) VH: EVQLVESGGGLVKPGGSLRLSCAASGFTFSDYYMSWIRQAPGKGLEWVSYISSSGSTIYYADSVKGRFTISRDNAKNSLYLQMNSLRAEDTAVYYCARGVAMVRDSWGQGTLVNVSS"
categorylabel = "yes"

[[record]]
binder = "7F2 HCAb (antibody, V domains shown) VH: EVQLVESGGGLVKPGGSLRLSCAASGFTFSADYMSWIRQAPGKGLEWVSYISSSGSSIYYADSVKGRFTISRDNAKNSLYLQMNSLRAEDTAVYYCARGWFGESHSFDYWGQGTLVTVSS"
categorylabel = "no"


Now take the following binder into account.
Say whether its Kd is strictly beneath 6 nM. Entry: 2F4 HCAb (antibody, V domains shown) VH: EVQLVESGGGLVKPGGSLRLSCAASGFAFSDYYMSWLRQAPGKGLEWVSYISSSGSNIYYADSVKGRFTISRDNAKNSLYLQMNSLRAEDTAVYYCARGAGVFDYLGQGGRGTLVTVSS yes
